# assay-method-text: physchem
Threshold check on pKa: at or above 8 gives criterion met, strictly below gives criterion not met.

Past entries and their recorded results:
>  <molecule>
CNCC[C@@H](Oc1cc(OC)ccc1C#N)c1ccccc1

>  <class-label>
criterion met

$$$$
>  <molecule>
Cc1ncc([N+](=O)[O-])n1CCO

>  <class-label>
criterion not met

$$$$
>  <molecule>
O=C(NCC12CC3CC(CC(C3)C1)C2)c1cc(OC2CCNCC2)ccc1Cl

>  <class-label>
criterion met

$$$$
>  <molecule>
OCc1ccnc2c(O)cccc12

>  <class-label>
criterion not met

$$$$
>  <molecule>
NC1=NC(C2CC2)Cc2ccccc21 (centres undefined)

>  <class-label>
criterion met

$$$$

Req: Textbook exercise: given the entry COc1ccccc1CNc1cc(C)ccn1 , state whether its pKa is greater than or equal to 8.
Resp: criterion not met

Req: Textbook exercise: given the entry O=C(O)c1ccc(N2CCC(CN3CCC(Oc4ccc(Cl)c(Cl)c4)CC3)CC2)cc1 , state whether its pKa is greater than or equal to 8.
Resp: criterion met

Req: Textbook exercise: given the entry OC(Cn1cncn1)(Cn1cncn1)c1ccc(F)cc1F , state whether its pKa is greater than or equal to 8.
Resp: criterion not met

Req: Textbook exercise: given the entry Cc1ccc(C#N)c(S[C@H](CCN)c2ccccc2)n1 , state whether its pKa is greater than or equal to 8.
Resp: criterion met

Req: Textbook exercise: given the entry CNCCc1ccc(O)c(O)c1 [DEOXIEPINEPHRINE] , state whether its pKa is greater than or equal to 8.
Resp: criterion met

====

Listed compounds paired with reported logD
# assay-method-text: physchem
# condition-notes: octan-1-ol/water, pH 7.4, LogD7.4
Answer with a number only.

>  <compound>
CS(=O)(=O)C1(c2cc(N3CCOCC3)nc(-c3cccc4[nH]ccc34)n2)CCNCC1

>  <recorded-value>
0.7

$$$$
>  <compound>
COc1cc2c(Nc3cccc(Cl)c3Cl)c(C(N)=O)cnc2cc1NCCN(C)C

>  <recorded-value>
3.41

$$$$
>  <compound>
CC(=O)Nc1ccc(CNc2[nH]nc3cccc(Oc4ccc(S(C)(=O)=O)cc4)c23)cc1

>  <recorded-value>
2.63

$$$$
>  <compound>
O=c1cc(O)oc2c1c(=O)n(-c1ccccc1)c1ccccc21

>  <recorded-value>
0.96

$$$$
>  <compound>
O=c1[nH]c2c(O)ccc([C@@H](O)CNCCCSCCNCCc3cccc(Cl)c3Cl)c2s1

>  <recorded-value>
1.74

$$$$

Now, please, on to the next compound.
Req: Consider the compound CC[C@@H](Nc1c(Nc2cccc(C(=O)N(C)C)c2O)c(=O)c1=O)c1ccc(C)o1 [NAVARIXIN ANHYDROUS] and give its recorded logD.
Resp: 2.32

====

# assay-method-text: in vitro
# condition-notes: human, microsomes
Listed compounds paired with reported microsomal CLint

The cases that follow already have their microsomal CLint on record.
>  <compound>
CCc1ccc(OCC(=O)O)c(-c2ccc(S(C)(=O)=O)cc2)c1

>  <microsomal CLint>
< 3 µL/min/mg

$$$$
>  <compound>
Fc1cccc(COc2ccc(Nc3ncnc4ccc(-c5cccc(N6CCOCC6)c5)cc34)cc2Cl)c1

>  <microsomal CLint>
63.1 µL/min/mg

$$$$
>  <compound>
Cc1ccc(S(=O)(=O)Nc2c(C(=O)NCC(C)(C)C)c(C)nn2-c2ccccc2)cc1

>  <microsomal CLint>
27 µL/min/mg

$$$$
>  <compound>
Cc1cc(CN2Cc3ccccc3C[C@H]2C(=O)Nc2ccc(Cl)cc2Cl)ccc1OCC(=O)O

>  <microsomal CLint>
11 µL/min/mg

$$$$

Req: Consider the compound O=C(Nc1nc2ccccc2n1CCCO)c1cccc([N+](=O)[O-])c1 and give its recorded microsomal CLint.
Resp: 112 µL/min/mg

Req: Consider the compound O=C(O)COc1ccc(C(=O)c2cccs2)c(Cl)c1Cl and give its recorded microsomal CLint.
Resp: 82 µL/min/mg

Req: Consider the compound Oc1nc2c(O)ccc(CCNCCCCCCOCCc3ccccc3)c2s1 and give its recorded microsomal CLint.
Resp: 29 µL/min/mg

Req: Consider the compound Cc1cc(CN2CCc3ccccc3C2C(=O)Nc2ccc(Cl)cc2Cl)ccc1OCC(=O)O (stereo not given) and give its recorded microsomal CLint.
Resp: 15 µL/min/mg

Req: Consider the compound Cc1ccc(N2CC(COc3ccc(-c4noc(C)n4)cc3)C2)nn1 and give its recorded microsomal CLint.
Resp: 26.3 µL/min/mg

Req: Consider the compound Cc1ccc(S(=O)(=O)Nc2c(C(=O)N[C@@H](C)C(C)(C)C)c(C)nn2C2CCCC2)cc1 and give its recorded microsomal CLint.
Resp: 21 µL/min/mg

====

# assay-method-text: in vitro
# condition-notes: mouse, plasma
quantity: fraction unbound at 5 h

The cases that follow already have their fraction unbound at 5 h on record.
>  <compound>
CCCN(c1cccc(C#N)c1)P(=O)(c1ccccc1)c1ccccc1

>  <recorded-value>
0.0467

$$$$
>  <compound>
Cc1cc(-c2ccc(-c3nc4ccncc4c(O)c3C#N)cc2)ccn1

>  <recorded-value>
0.013

$$$$
>  <compound>
CC#Cc1cncc(-c2cccc(C3(c4cc(C)c(OC)c(C)c4)N=C(C)C(N)=N3)c2)c1 (stereo not given)

>  <recorded-value>
0.006

$$$$

Req: Consider the compound Clc1ccc2c(c1)CCc1cccnc1C2=C1CCNCC1 [DESLORATADINE] and give its recorded fraction unbound at 5 h.
Resp: 0.183

Req: Consider the compound C[C@@]1(c2cc(-c3cncnc3)c(F)cc2F)CCSC(N)=N1 [LY-2811376] and give its recorded fraction unbound at 5 h.
Resp: 0.671

====

# assay-method-text: physchem
# condition-notes: octan-1-ol/water, pH 7.4, LogD7.4
Mark T only when logD stays strictly below 3. Values equal to the cut-off are F.

Past entries and their recorded results:
>  <compound>
O=C(c1ccc(F)cc1)C1CCN(C(=S)Nc2ccc(F)cc2)CC1

>  <class-label>
F

$$$$
>  <compound>
Cc1noc(C)c1CCC1CCN(S(=O)(=O)CC2(N(O)C=O)CCC(F)(F)CC2)CC1

>  <class-label>
T

$$$$
>  <compound>
CN(C)CC(O)COc1ccc(Nc2nccc(Nc3cc(Cl)ccc3Cl)n2)cc1 (stereo unspecified)

>  <class-label>
T

$$$$

Req: Does the reported logD of the following compound sit strictly below 3? CNCCC(Oc1ccccc1OC)c1ccccc1 (stereo unspecified)
Resp: T

Req: Does the reported logD of the following compound sit strictly below 3? N#Cc1cccc(COc2ccc3c(c2)OCCC3=O)c1
Resp: T

Req: Does the reported logD of the following compound sit strictly below 3? NC1(C(=O)NC(CO)c2ccc(Cl)cc2)CCN(c2ncnc3[nH]ccc23)CC1 (stereo unspecified)
Resp: T

Req: Does the reported logD of the following compound sit strictly below 3? CN1CCN(c2cc(F)cc3c(=O)cc(C(=O)Nc4ccc(N5CCOCC5)cc4)[nH]c23)CC1
Resp: T

====

# assay-method-text: physchem
# condition-notes: octan-1-ol/water, pH 7.4, LogD7.4
Binning of logD into classes: lo: < 2; mid: ≥ 2 and < 3; hi: ≥ 3

>  <molecule>
COc1ccc(S(=O)(=O)Nc2ccc(/C=C/C(=O)Nc3ccccc3N)cc2)cc1OC

>  <class-label>
mid

$$$$

Req: Which class holds O=c1[nH]c(-c2ccccc2)nc2cc(Cl)ccc12 ?
Resp: hi

Req: Which class holds COc1ncc2ncc(=O)n(CCN3CCC(NCc4cc5c(cn4)OCCO5)CC3)c2n1 ?
Resp: lo

Req: Which class holds Cc1sc(CN2CCNCC2)cc1C(=O)NCC12CC3CC(CC(C3)C1)C2 ?
Resp: mid

Req: Which class holds O=C1CCOc2nc(C#CC3CCCCC3)ccc21 ?
Resp: hi

Req: Which class holds O=C1Nc2ccccc2C1(O)c1ccccc1 (stereo unspecified) ?
Resp: lo

Req: Which class holds CN(C)N(C)C(=O)[C@@]1(Cc2ccccc2)CCCN(C(=O)[C@@H](Cc2c[nH]c3ccccc23)NC(=O)C(C)(C)N)C1 ?
Resp: mid

Req: Which class holds CCC(CCNC)Oc1cc(Cl)ccc1C#N (stereo unspecified) ?
Resp: lo

====

# assay-method-text: in vitro
# condition-notes: SD, HW or BN, rat, plasma
quantity: fraction unbound at 5 h
Answer with a number only.

>  <compound>
O=C1NC(=O)C(c2ccccc2)(c2ccccc2)N1 [PHENYTOIN]

>  <fraction unbound at 5 h>
0.179

$$$$

Req: Consider the compound COc1ccc(CNC(=O)Nc2ncc([N+](=O)[O-])s2)cc1 and give its recorded fraction unbound at 5 h.
Resp: 0.0108

Req: Consider the compound Cc1nn(-c2ccc(F)cc2)c(NS(=O)(=O)c2ccc(C#N)cc2)c1C(=O)N[C@@H](C)C(C)(C)C and give its recorded fraction unbound at 5 h.
Resp: 0.0801

Req: Consider the compound O=C(O)COc1ccc(Cl)cc1CN1CCN(S(=O)(=O)Cc2ccccc2)CC1 and give its recorded fraction unbound at 5 h.
Resp: 0.114

Req: Consider the compound O=C(O)COc1ccc(Cl)cc1CN1CCN(S(=O)(=O)c2ccccc2)CC1 and give its recorded fraction unbound at 5 h.
Resp: 0.132

Req: Consider the compound c1ccc([C@@H]([C@H](c2ccccc2)N2CCCC2)N2CCCC2)cc1 and give its recorded fraction unbound at 5 h.
Resp: 0.329

Req: Consider the compound CC(C)(C)OC(=O)NC[C@H]1CC[C@H](CNC(=O)c2cc(N3CCC(CCN)CC3)nc3ccccc23)CC1 and give its recorded fraction unbound at 5 h.
Resp: 0.0321

Req: Consider the compound Cc1ccc(S(=O)(=O)Nc2c(C(=O)NC3CCCCC3C)c(C)nn2-c2ccccc2)cc1 (centres undefined) and give its recorded fraction unbound at 5 h.
Resp: 0.0224

Req: Consider the compound OCCN1CCN(CCCN2c3ccccc3Sc3ccc(C(F)(F)F)cc32)CC1 [FLUPHENAZINE] and give its recorded fraction unbound at 5 h.
Resp: 0.0119
